B1: HDV Ribozyme (parent)
chain: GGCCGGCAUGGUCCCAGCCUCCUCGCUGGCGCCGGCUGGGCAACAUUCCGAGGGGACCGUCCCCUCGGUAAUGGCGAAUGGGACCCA

# Variants of: B1
# protocolSummary: self-cleavage, relative activity (ratio to wild type); higher = more cleavage; co-transcriptional
So basically, the class depends on measured self-cleavage, and the ranges are category 1 (below 0.3), category 2 (0.3 to below 0.7), category 3 (0.7 or more)

Query: Category of G10C G76A :
Reply: category 3

Query: Category of A56U U60G :
Reply: category 3

Query: Category of C64A A71U :
Reply: category 3

Query: Category of G50A U65C :
Reply: category 3

Query: Category of G38U C64A :
Reply: category 1

Query: Category of C30U C41U :
Reply: category 2

Query: Category of G52U A56C :
Reply: category 3

Query: Category of A71C C86U :
Reply: category 2

Query: Category of C44G A51U :
Reply: category 2

Query: Category of C49A G68A :
Reply: category 3

Query: Category of A8G G31A :
Reply: category 2

Query: Category of U20C G50C :
Reply: category 2

Query: Category of G17C U69G :
Reply: category 2

Query: Category of U20G G29A :
Reply: category 1

Query: Category of G76U G82C :
Reply: category 1

Query: Category of C22U A43C :
Reply: category 1

Query: Category of G31U U37C :
Reply: category 2

Query: Category of G28U G59A :
Reply: category 1

Query: Category of U12C C86G :
Reply: category 1

Query: Category of G59C U72A :
Reply: category 3
